- MEASUREMENT_DESCRIPTION: Kinetic solubility of the compound in FaSSIF at pH 6.5 after 2 hrs by shake flask method
- Type: physicochemical
- MEASUREMENT_PARAMETERS: read-out: Kinetic_solubility
QUANTITY_KIND: solubility kinetic at 2 h (µM)
Quick reminder: number only, in µM, skip the unit.

Recorded results for 3 compounds are shown here.
COMPOUND | QUANTITY_KIND | NUMERIC_RESULT
CCNCCNc1cc(-c2ccc(S(C)(=O)=O)cc2)c(C#N)c2nc3ccccc3n12 | solubility kinetic at 2 h | 40
CCN(CC)CCCC(C)Nc1cc(-c2ccc(C(F)(F)F)cc2)c(C#N)c2nc3ccccc3n12 (configuration not stated) | solubility kinetic at 2 h | 85
CCNCCNc1cc(-c2ccc(C(F)(F)F)cc2)c(C#N)c2nc3cc(Cl)cc(Cl)c3n12 | solubility kinetic at 2 h | 20

Prompt line: Report solubility kinetic at 2 h for N#Cc1c(-c2ccc(C(F)(F)F)cc2)c(F)c(NCCN2CCC(O)C2)n2c1nc1ccccc12 (configuration not stated) please.
Response line: 80

Prompt line: For the compound shown here, CCNCCNc1cc(-c2ccc(C(F)(F)F)cc2)c(C#N)c2nc3cc(Cl)c(Cl)cc3n12 , give the reported solubility kinetic at 2 h.
Response line: 10

Prompt line: If you can, please state the reported solubility kinetic at 2 h value of CCNCCNc1cc(C2CCCCC2)c(C#N)c2nc3ccccc3n12 .
Response line: 10

Prompt line: Which solubility kinetic at 2 h value is on record for CCNCCNc1cc(-c2ccc(C(F)(F)F)cc2)c(C#N)c2nc3cccc(Cl)c3n12 ?
Response line: 10

Prompt line: GET /values?readout=solubility kinetic at 2 h&item= CCNCCNc1cc(-c2ccc(C(F)(F)F)cc2)c(C#N)c2nc3ncccc3n12
Response line: 10

Prompt line: Fill blank: measured solubility kinetic at 2 h of the compound CCNCCNc1c(F)c(-c2ccc(C(F)(F)F)cc2)c(C#N)c2nc3ccccc3n12 is ____.
Response line: 160

Prompt line: So what's the measured solubility kinetic at 2 h for this one? CCNCCNc1cc(-c2cccc(F)c2)c(C#N)c2nc3ccccc3n12
Response line: 25

====

- MEASUREMENT_DESCRIPTION: Cmax in C57/Bl6 mouse at 10 mg/kg, po administered via gavage by LC-MS method
- Type: ADME, organism-based
- Parameters: dose 10 mg/kg, route oral
- MEASUREMENT_PARAMETERS: in vivo
Entries and their measured Cmax follow.
Numbers only here, please. The scale is nM.

SMILES_DATA | UNIT_STRING | Cmax
CCNCCNc1cc(-c2ccc(C(F)(F)F)cc2)c(C#N)c2nc3cc(Cl)cc(Cl)c3n12 | nM | 220

Next molecule, Cmax to be filled in.
Prompt line: Look at this molecule and give its reported Cmax. CCNCCNc1cc(-c2ccc(C(F)(F)F)cc2)c(C#N)c2nc3cc(Cl)c(Cl)cc3n12
Response line: 70

====

- MEASUREMENT_DESCRIPTION: Metabolic stability in Balb/c mouse liver microsomes assessed as compound remaining at 1 uM in presence of NADPH after 30 mins by LC-MS/MS analysis
- Format: ADME, microsome
- MEASUREMENT_PARAMETERS: read-out: Stability
The entries below come with measured remaining at 0.5 h, 1 µM values attached.
The response must be a number in % with no trailing unit.

Please review the entries below; each comes with its answer.
MOLECULE | QUANTITY_KIND | NUMERIC_RESULT
CN1CCC(Nc2cc(-c3ccc(C(F)(F)F)cc3)c(C#N)c3nc4ccccc4n23)CC1 | remaining at 0.5 h, 1 µM | 63
N#Cc1c(-c2ccc(C(F)(F)F)cc2)c(F)c(NCCN2CCC(O)C2)n2c1nc1ccccc12 (stereo not given) | remaining at 0.5 h, 1 µM | 37
CCNCCNc1cc(-c2ccc(S(C)(=O)=O)cc2)c(C#N)c2nc3ccccc3n12 | remaining at 0.5 h, 1 µM | 86
Cc1ncc2n1-c1ccc(Cl)cc1C(c1ccccc1F)=NC2 | remaining at 0.5 h, 1 µM | 1.3

Prompt line: Entry under review: CCNCCNc1cc(-c2cccc(F)c2)c(C#N)c2nc3ccccc3n12 . Reported remaining at 0.5 h, 1 µM?
Response line: 100

====

- Tested on: Plasmodium berghei
- MEASUREMENT_DESCRIPTION: Antimalarial activity against GFP-fused Plasmodium berghei ANKA infected in mouse assessed as reduction in parasitemia at 50 mg/kg, po administered once daily for 4 days by flow cytometry relative to control
- Type: functional
- Parameters: scale not given: the % may be the effect or the level left
// reported Activity for each item listed
Answer in %, number only, no unit symbol.

Known Activity results, listed for orientation:
SMILES_DATA | SYSTEM_UNDER_TEST | Activity, %
CCNCCNc1cc(-c2ccc(C(F)(F)F)cc2)c(C#N)c2nc3cc(Cl)c(Cl)cc3n12 | Plasmodium berghei | 98
CCNCCNc1cc(-c2ccc(C(F)(F)F)cc2)c(C#N)c2nc3cc(Cl)cc(Cl)c3n12 | Plasmodium berghei | 98
CCNCCNc1cc(-c2cccc(F)c2)c(C#N)c2nc3ccccc3n12 | Plasmodium berghei | 61
CCNCCNc1cc(-c2ccc(C(F)(F)F)cc2)c(C#N)c2nc3cccc(Cl)c3n12 | Plasmodium berghei | 85

Prompt line: Fill in: Activity of CCNCCNc1cc(-c2ccc(C(F)(F)F)cc2)c(C#N)c2nc3ccccc3n12.Cl is ___
Response line: 96

====

- MEASUREMENT_DESCRIPTION: Metabolic stability in Balb/c mouse liver microsomes assessed as compound remaining at 1 uM in presence of NADPH after 30 mins by LC-MS/MS analysis
- Assay type: ADME, microsome
- MEASUREMENT_PARAMETERS: read-out: Stability
QUANTITY_KIND: remaining at 0.5 h, 1 µM
// return the numeric value with its unit appended

Known results for compounds:
COMPOUND | RESULT
N#Cc1c(-c2ccc(C(F)(F)F)cc2)cc(N2CCC(N)CC2)n2c1nc1ccccc12 | 92%
CCNCCNc1c(F)c(-c2ccc(C(F)(F)F)cc2)c(C#N)c2nc3ccccc3n12 | 35%
CCNCCNc1c(C)c(-c2ccc(C(F)(F)F)cc2)c(C#N)c2nc3ccccc3n12 | 80%
CCNCCNc1cc(C2CCCCC2)c(C#N)c2nc3ccccc3n12 | 42%

For the next question, use this compound.
Prompt line: # input compound: N#Cc1c(-c2ccc(C(F)(F)F)cc2)cc(NCCN2CCC(O)C2)n2c1nc1ccccc12 (stereo not given) ; wanted: its remaining at 0.5 h, 1 µM
Response line: 51%

====

- MEASUREMENT_DESCRIPTION: Selectivity index, ratio of IC50 for CHO cells to IC50 for chloroquine-sensitive Plasmodium falciparum NF54
- Assay type: toxicity
- MEASUREMENT_PARAMETERS: hamster, read-out: Ratio IC50
Parameter: selectivity ratio. Scope: all listed entries.
Enter a number only.

The examples below pair each entry with its known result.
SMILES_DATA | selectivity ratio
CCNCCNc1cc(-c2ccc(C(F)(F)F)cc2)c(C#N)c2nc3ccc(Br)cc3n12 | 63
CCNCCNc1cc(-c2ccc(C(F)(F)F)cc2)c(C#N)c2nc3cc(Cl)ccc3n12 | 362
CCNCCNc1cc(-c2cccc(F)c2)c(C#N)c2nc3ccccc3n12 | 13
CCNCCNc1cc(-c2ccc(F)cc2)c(C#N)c2nc3ccccc3n12 | 35

Attention now shifts to the item below.
Prompt line: Request the reported selectivity ratio associated with CCNCCNc1cc(-c2ccc(C(F)(F)F)cc2)c(C#N)c2nc3cccc(Br)c3n12
Response line: 2

====

- MEASUREMENT_DESCRIPTION: Selectivity index, ratio of IC50 for CHO cells to IC50 for chloroquine-sensitive Plasmodium falciparum NF54
- Assay type: toxicity
- MEASUREMENT_PARAMETERS: hamster, read-out: Ratio IC50
Decision: selectivity ratio beneath 30 gives Y; selectivity ratio meeting or exceeding 30 gives N.

Examples with answers:
MOLECULE | LABEL_VALUE
CCNCCNc1cc(-c2ccc(C(F)(F)F)cc2)c(C#N)c2nc3cc(Cl)cc(Cl)c3n12 | N
N#Cc1c(-c2ccc(C(F)(F)F)cc2)cc(NC2CCNCC2)n2c1nc1ccccc12 | N
N#Cc1c(-c2ccc(C(F)(F)F)cc2)cc(NC2CCNCC2)n2c1nc1cc(Cl)cc(Cl)c12 | Y
CCNCCNc1cc(-c2ccc(C(F)(F)F)cc2)c(C#N)c2nc3cc(Cl)c(Cl)cc3n12 | N
CCNCCNc1cc(-c2ccc(Cl)cc2)c(C#N)c2nc3ccccc3n12 | Y
CCNCCNc1cc(-c2cccc(C(F)(F)F)c2)c(C#N)c2nc3ccccc3n12 | Y
Cc1c(-c2ccc(C(F)(F)F)cc2)c(C#N)c2nc3ccccc3n2c1NCCN1CCC(O)C1 (centres undefined) | N
CCNCCNc1cc(-c2ccccc2F)c(C#N)c2nc3ccccc3n12 | Y

Next, consider the following molecule.
Prompt line: For CN1CCC(Nc2cc(-c3ccc(C(F)(F)F)cc3)c(C#N)c3nc4cc(Cl)c(Cl)cc4n23)CC1 , is the recorded selectivity ratio below the cut-off of 30?
Response line: Y
